Answer each item with its documented TGI.
- System: K-562 leukemia
- test.name: NCI tumour cell line growth inhibition, 48 h

Per the records, this molecule ( CCCOc1nc(N)c2cnn(C3CCCCO3)c2n1 (stereo unspecified) ) has TGI equal to > 100 µM

Per the records, this molecule ( "Cc1cc2c(cc1C)[n+](=O)c(C(=O)c1ccccc1)c(C(F)F)n2[O-]" ) has TGI equal to > 100 µM

Per the records, this molecule ( "Cc1ccc(-[n+]2cc([O-])on2)cc1" ) has TGI equal to > 100 µM

Per the records, this molecule ( Cc1cn(C2OC(CO[Si](C)(C)C(C)(C)C)C(N(C)O[Si](C)(C)C(C)(C)C)C2[Se]c2ccccc2)c(=O)[nH]c1=O (stereo unspecified) ) has TGI equal to > 100 µM

Per the records, this molecule ( CON(C)C(=O)C(C)N(Cc1ccccc1)Cc1ccccc1 (stereo unspecified) ) has TGI equal to > 100 µM

Per the records, this molecule ( "CCOC(=O)c1cc(-c2ccc(OC)cc2)c([N+](=O)[O-])n1C" ) has TGI equal to > 10 µM

Per the records, this molecule ( CCCCCCCCCCSC(=N)N (tested in a mixture with another compound) ) has TGI equal to 5.88 µM

Per the records, this molecule ( "COc1ccccc1CC(=O)C(O)(C(F)(F)F)C(F)(F)F" ) has TGI equal to > 100 µM

Per the records, this molecule ( O=C(O)C1C2c3ccccc3C(c3ccccc32)C1C(=O)NCC1CC1 (stereo unspecified) ) has TGI equal to > 100 µM

Per the records, this molecule ( O=C1SC(SCc2ccccc2)=NC12CC2c1ccccc1 (stereo unspecified) ) has TGI equal to 55.3 µM

Per the records, this molecule ( "N#C/C(N)=C(\C#N)NC=NCCO" ) has TGI equal to > 100 µM

* * *

Answer each item with its documented TGI.
- System: HCT-116 colon
- test.name: NCI tumour cell line growth inhibition, 48 h

Response field TGI (HCT-116 colon) for item "NC(N)=NS(=O)(=O)c1ccc(N=Nc2c(O)c(C(=O)O)cc3ccccc23)cc1" : > 100 µM

Response field TGI (HCT-116 colon) for item "COc1cc(-c2nc3sccn3c2-c2ccnc(NCCNS(=O)(=O)c3ccc(F)cc3)n2)ccc1F" : > 100 µM

Response field TGI (HCT-116 colon) for item Cc1ccc(S(=O)(=O)N2C3C=CC(C3)[C@@H]2C(Cl)(Cl)Cl)cc1 (some centres undefined) : 24.7 µM

Response field TGI (HCT-116 colon) for item "O=c1[nH]c(-c2ccccc2)nc2cc(Cl)ccc12" : > 100 µM

Response field TGI (HCT-116 colon) for item "Cc1cc(OC(=O)Nc2cccc3ccccc23)c(C(C)C)cc1C(=S)Nc1ccccc1" : 32.4 µM

Response field TGI (HCT-116 colon) for item "COC(=O)/C=C/c1cc(OC(C)=O)c2c(c1)[C@@H](C(=O)OC)[C@H](c1ccc(OC(C)=O)c(OC(C)=O)c1)O2" : > 59.9 µM

Response field TGI (HCT-116 colon) for item "C[C@@H]1CC[C@H]2C(C)(C)[C@H]3C[C@@]12CC[C@@]3(C)O" : > 100 µM

Response field TGI (HCT-116 colon) for item Clc1ccc2cccc3c2c1C1OC3c2ccccc21 (centres undefined) : > 100 µM

Response field TGI (HCT-116 colon) for item "O=C1OC(c2ccccc2)=N/C1=C\c1ccc([N+](=O)[O-])cc1" : > 100 µM

Response field TGI (HCT-116 colon) for item CNC(=O)NCCCC(NC(C)=O)C(=O)NCc1ccccc1 (centres undefined) : > 100 µM

Response field TGI (HCT-116 colon) for item "N#Cc1nc(-c2cnccn2)oc1N" : > 100 µM

Response field TGI (HCT-116 colon) for item "CCNC(=O)c1ccc(C)c(N=NN(C)C)c1" : > 100 µM

Response field TGI (HCT-116 colon) for item "CCOc1ccc(NC2=CC(=O)C(=O)c3ccccc32)cc1" : 10.1 µM

Response field TGI (HCT-116 colon) for item COc1ccc(C2=CC(C(C)=C(C(N)=O)C(N)=O)C=C(c3ccc(Br)cc3)C2)c(OC)c1 (centres undefined) : > 100 µM

Response field TGI (HCT-116 colon) for item COc1ccc(C2Oc3cc(OC)c(OC)cc3C2CCl)cc1OC (centres undefined) : > 100 µM

Response field TGI (HCT-116 colon) for item "CCOC(=O)/C(=C/c1ccc(OC)cc1)N(CC)CC" : > 100 µM

Response field TGI (HCT-116 colon) for item O=c1[nH]c(=O)n(C2COC(CO)C2O)cc1F (centres undefined) : > 100 µM

Response field TGI (HCT-116 colon) for item "N#CSC#CCCC#CSC#N" : 48.5 µM

Response field TGI (HCT-116 colon) for item C[N+]12C=CC=C1C(N1CCCC1)c1scc(-c3ccc(Br)cc3)c12 (centres undefined) : > 100 µM

Response field TGI (HCT-116 colon) for item C=C(C)C12OC1[C@@]1(C)C(=CC2=O)CCC(O)[C@@H]1C (some centres undefined) : 14.2 µM

Response field TGI (HCT-116 colon) for item CC(N)/C(N)=N/O (centres undefined) : > 100 µM

Response field TGI (HCT-116 colon) for item "Cc1ccc2nc(-c3ccccc3)cc(=O)n2c1" : > 100 µM

Response field TGI (HCT-116 colon) for item "C/C=C/[C@@H]1O[C@@H]2COC(=O)C2=C[C@@H]1O" : 8.79 µM

Response field TGI (HCT-116 colon) for item "CCOC(=O)c1ccc(-c2cc(C)no2)[nH]1" : > 100 µM

* * *

Answer each item with its documented TGI.
- Test system: M19-MEL melanoma
- test.name: NCI tumour cell line growth inhibition, 48 h
Numbers only here, please. The scale is µM.

Per the records, this molecule ( CCC(C)SC1SCC2C(=O)N(C)C3(CC3C)C(=O)OCC(NC(=O)c3nc4ccccc4cc3O)C(=O)NC(C)C(=O)N(C)C1C(=O)N(C)C1(CC1C)C(=O)OCC(NC(=O)c1nc3ccccc3cc1O)C(=O)NC(C)C(=O)N2C (centres undefined) ) has TGI equal to 0.000236

Per the records, this molecule ( "O=C(/C=C/c1c(O)ccc2ccccc12)c1ccc([N+](=O)[O-])cc1" ) has TGI equal to 35.4

* * *

Answer each item with its documented TGI.
- System: A498 renal
- test.name: NCI tumour cell line growth inhibition, 48 h

Per the records, this compound ( "Cc1nc(-c2nc(C)c(C(=O)NNC(=O)C[n+]3ccccc3)s2)sc1C(=O)NNC(=O)C[n+]1ccccc1" ) has TGI equal to > 100 µM

Per the records, this compound ( "COC(=O)c1ccc(Cc2cc(Cc3ccc(C(=O)OC)cc3)cc(Cc3ccc(C(=O)OC)cc3)c2)cc1" ) has TGI equal to > 25 µM

Per the records, this compound ( "CCOC(=O)/C(C#N)=C/c1coc2cc(C)cc(C)c2c1=O" ) has TGI equal to > 100 µM

Per the records, this compound ( COc1ccc(C(c2cc(OC)c(OC)c(OC)c2)n2cncn2)cc1O (configuration not stated) ) has TGI equal to 0.957 µM

Per the records, this compound ( Cc1ccc(NC2=C3CCCCC3OC2=O)cc1 (configuration not stated) ) has TGI equal to > 100 µM

Per the records, this compound ( COC(=O)c1cccc(C)c1C1CN=NC12Cc1cc(C)cc(C)c1C2=O (configuration not stated) ) has TGI equal to > 100 µM

Per the records, this compound ( "Cc1cc2c(cc1C)[n+](=O)c(C(=O)c1ccccc1)c(C(F)F)n2[O-]" ) has TGI equal to 91.1 µM

Per the records, this compound ( NC(Cc1ccccc1)C(=O)NC(Cc1ccccc1)NC(=O)C(Cc1c[nH]c2ccccc12)C(=O)O (configuration not stated) ) has TGI equal to > 100 µM

Per the records, this compound ( CCOC(=O)CCC(NC(=O)C(N)Cc1ccc(N(CCCl)CCCl)cc1)C(=O)OCC (configuration not stated) ) has TGI equal to > 100 µM

Per the records, this compound ( CC1=C/C(=N\NC(N)=S)C(C(O)(C(F)(F)F)C(F)(F)F)C(C)(C)C1 (configuration not stated) ) has TGI equal to > 10 µM

Per the records, this compound ( CC1NC(=O)C(C)C(c2ccccc2)N(N=O)C1c1ccccc1 (configuration not stated) ) has TGI equal to > 100 µM

Per the records, this compound ( CC(C)C(NC(=O)Oc1ccccc1)C(=O)NC1c2c(Br)sc(Br)c2C(=O)C1O (configuration not stated) ) has TGI equal to > 25 µM

Per the records, this compound ( CON(C)C(=O)C(Cc1ccccc1)NC(=O)OCc1ccccc1 (configuration not stated) ) has TGI equal to > 100 µM

Per the records, this compound ( CC(=O)OC1(C)N=NC2(CCCCC2)O1 (configuration not stated) ) has TGI equal to > 100 µM

Per the records, this compound ( "O=C(O)C(Cl)Cl" ) has TGI equal to > 10000 µM

Per the records, this compound ( "COc1ccc2c(c1)[n+]([O-])c(C(N)=O)c(N)[n+]2[O-]" ) has TGI equal to > 100 µM

Per the records, this compound ( COCOC1/C=C/CCCCC(=O)C(C)C#CC1 (configuration not stated) ) has TGI equal to 24.6 µM

Per the records, this compound ( "O=C1CSC(=S)N1/N=C/c1ccc(Cl)c([N+](=O)[O-])c1" ) has TGI equal to > 100 µM

Per the records, this compound ( "O=C(C(=O)n1ccc2ccccc21)n1ccc2ccccc21" ) has TGI equal to > 100 µM

Per the records, this compound ( "O=C1c2ccccc2C(=O)c2c(/C=C\N3CCCCC3)ccnc21" ) has TGI equal to 31.8 µM

Per the records, this compound ( "Oc1ccc(NCn2c(=S)sc3ccccc32)cc1" ) has TGI equal to > 100 µM

Per the records, this compound ( "COC(=O)/C=C/c1cc(OC(C)=O)c2c(c1)[C@@H](C(=O)OC)[C@H](c1ccc(OC(C)=O)c(OC(C)=O)c1)O2" ) has TGI equal to 7.97 µM

Measured values drawn from PubChem BioAssay (NCI) for this set.
